// provenance: PubChem BioAssay (NCI)

System: NCI-H226 lung
Assay: NCI tumour cell line growth inhibition, 48 h; in the data active means GI50 below about 0.43 µM; inactive means the rest
Hi! Could you answer with just one of these? active, inactive

Here's what some known entries look like.
Compound	Target Or Test System	Assigned Category
CCC1CN2C(=N1)c1ccccc1-c1cc(Cl)ccc12 (stereo not drawn)	NCI-H226 lung	inactive
C1COCCN1.C1COCCN1.NC1CCCCC1N.[Cl-].[Pt+2] (stereo not drawn)	NCI-H226 lung	inactive
CCC(C)[C@H]1O[C@]2(C=C[C@@H]1C)C[C@@H]1C[C@@H](C/C=C(\C)[C@@H](OC3C[C@H](OC)C(O[C@H]4C[C@H](OC)[C@@H](O)[C@H](C)O4)[C@H](C)O3)[C@@H](C)/C=C/C=C3\CO[C@@H]4[C@H](O)C(C)=C[C@@H](C(=O)O1)[C@]34O)O2 (stereo partly drawn)	NCI-H226 lung	inactive

Incoming: Please share the test call associated with CC1OC(n2c3ccccc3c3c4c(c5c6ccccc6[nH]c5c32)C(=O)N(CCN[C@@H]2CCC[C@H]2N)C4=O)CC(O)C1O (stereo partly drawn) .
Outgoing: inactive

Incoming: Query Cc1cc(NCCN(C(C)C)C(C)C)nc(/N=C(\N)Nc2ccc(Cl)c(C(F)(F)F)c2)n1 next
Outgoing: inactive

Incoming: Please do the same for CC1(N)CCN(c2cccnc2NC(=O)c2nc(-c3ncccc3C(F)(F)F)cnc2N)CC1 as well.
Outgoing: inactive

Incoming: Try COC(=O)[C@@]12OC[C@]34[C@H]([C@@H](O)[C@@H]1O)[C@@]1(C)[C@H](O)C(=O)C=C(C)[C@@H]1C[C@H]3OC(=O)C(OC(C)=O)[C@@H]24 (stereo partly drawn) next.
Outgoing: active

Incoming: And then COc1ccc(-c2nc(-c3ccccc3)c(-c3ccccc3)[nH]2)cc1OC1CCCC1 , what is it?
Outgoing: inactive
